Biological target: 5-HT2BR (Homo sapiens)
Sequence (P41595 whole entry): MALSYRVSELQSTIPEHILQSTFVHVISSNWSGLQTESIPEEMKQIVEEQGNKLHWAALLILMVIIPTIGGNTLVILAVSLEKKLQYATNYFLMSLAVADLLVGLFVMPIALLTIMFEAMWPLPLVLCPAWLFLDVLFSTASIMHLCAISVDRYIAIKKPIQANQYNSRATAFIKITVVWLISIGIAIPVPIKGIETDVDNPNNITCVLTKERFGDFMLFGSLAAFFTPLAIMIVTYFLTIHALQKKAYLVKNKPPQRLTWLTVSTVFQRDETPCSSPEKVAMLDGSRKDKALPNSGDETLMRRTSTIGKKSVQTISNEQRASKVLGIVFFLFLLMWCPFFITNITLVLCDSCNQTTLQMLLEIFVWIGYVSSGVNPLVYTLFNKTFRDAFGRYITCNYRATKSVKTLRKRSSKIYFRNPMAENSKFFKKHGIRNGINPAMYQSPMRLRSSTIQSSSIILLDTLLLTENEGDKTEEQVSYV
Experiment: PDSP radioligand binding, 5-HT2BR
Conditions: read-out: Binding affinity constant Ki, 5-HT2BR; [3H]LSD
measured attribute: Ki

Returns the measured Ki for the input compound. Input: CC1(CCN2CCc3ccccc3C2)Cc2cc(Cl)ccc2C1=O (single isomer, unassigned; (-)) 329 nM

* * *

Biological target: D4R (Homo sapiens, UniProt P21917)
Sequence (P21917 1-419): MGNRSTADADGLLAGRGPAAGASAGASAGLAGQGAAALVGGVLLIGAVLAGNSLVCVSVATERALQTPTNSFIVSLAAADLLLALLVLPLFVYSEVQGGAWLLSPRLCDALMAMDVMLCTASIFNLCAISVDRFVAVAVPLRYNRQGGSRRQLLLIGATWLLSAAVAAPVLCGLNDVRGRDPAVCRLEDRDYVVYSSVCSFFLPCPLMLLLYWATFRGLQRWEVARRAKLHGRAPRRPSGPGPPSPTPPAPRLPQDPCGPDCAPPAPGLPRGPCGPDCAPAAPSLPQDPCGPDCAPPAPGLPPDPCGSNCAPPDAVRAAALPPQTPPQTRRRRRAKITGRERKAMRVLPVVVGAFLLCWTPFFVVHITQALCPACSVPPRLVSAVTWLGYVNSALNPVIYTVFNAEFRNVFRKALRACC
Assay: PDSP radioligand binding, D4
Conditions: read-out: Binding affinity constant Ki, D4; [3H]N-Methylspiperone
measured attribute: pKi
// pKi is dimensionless: -log10 of concentration (M)

Returns the measured pKi for the input compound. Input: CC1(CCN2CCc3ccccc3C2)Cc2cc(Cl)ccc2C1=O (single isomer, unassigned; (-)) [Compound 2a] 6.34

* * *

Molecular target: 5-HT2CR (Homo sapiens)
Sequence (P28335 33-458): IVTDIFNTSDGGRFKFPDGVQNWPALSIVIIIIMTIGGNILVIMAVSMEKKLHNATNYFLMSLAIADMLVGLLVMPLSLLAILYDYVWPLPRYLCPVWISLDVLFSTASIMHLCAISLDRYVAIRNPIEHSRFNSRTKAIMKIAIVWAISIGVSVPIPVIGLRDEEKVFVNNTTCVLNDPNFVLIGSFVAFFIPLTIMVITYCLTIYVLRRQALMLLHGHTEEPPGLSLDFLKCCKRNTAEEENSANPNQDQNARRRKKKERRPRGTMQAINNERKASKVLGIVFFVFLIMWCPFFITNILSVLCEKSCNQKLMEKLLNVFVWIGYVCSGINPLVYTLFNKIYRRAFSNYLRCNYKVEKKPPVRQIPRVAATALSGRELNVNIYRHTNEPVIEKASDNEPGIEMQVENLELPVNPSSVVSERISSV
Assay: PDSP radioligand binding, 5-HT2CR
measured attribute: Ki (nM)
Please give a number only; it is taken to be in nM.

Param readout = Ki; param system = 5-HT2CR (Homo sapiens); param query = CCOC(=O)C1(CCN2CCc3ccccc3C2)Cc2cc(Cl)ccc2C1=O (stereo not shown) ; response: value 885

* * *

Biological target: 5-HT2AR (Homo sapiens)
Sequence (P28223 whole entry): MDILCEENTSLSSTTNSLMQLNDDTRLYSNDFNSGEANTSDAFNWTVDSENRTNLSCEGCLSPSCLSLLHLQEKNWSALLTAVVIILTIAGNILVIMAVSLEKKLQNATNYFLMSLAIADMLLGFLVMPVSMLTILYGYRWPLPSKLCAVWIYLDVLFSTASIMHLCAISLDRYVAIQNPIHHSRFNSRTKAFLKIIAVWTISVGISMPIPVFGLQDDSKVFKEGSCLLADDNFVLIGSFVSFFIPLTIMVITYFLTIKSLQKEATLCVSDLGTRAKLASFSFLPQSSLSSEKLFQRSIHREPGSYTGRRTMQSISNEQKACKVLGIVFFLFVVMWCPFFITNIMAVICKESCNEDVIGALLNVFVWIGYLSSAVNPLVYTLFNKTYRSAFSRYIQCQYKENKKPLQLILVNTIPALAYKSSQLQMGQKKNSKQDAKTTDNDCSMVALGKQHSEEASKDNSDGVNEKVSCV
Experiment: PDSP radioligand binding, 5-HT2AR
Settings: Binding affinity constant Ki, 5-HT2AR, [3H]Ketanserin
measured attribute: Ki (nM)
Please give a number only; it is taken to be in nM.

Returns the measured Ki for the input molecule. Input: CC1(CCN2CCc3ccccc3C2)Cc2cc(Cl)ccc2C1=O (stereo not shown) 904

* * *

Molecular target: 5-HT2BR (Homo sapiens)
Test: PDSP radioligand binding, 5-HT2BR
Conditions: Binding affinity constant Ki, 5-HT2BR, [3H]LSD
measured attribute: Ki

Returns the measured Ki for the input compound. Input: CC1(CCN2CCc3ccccc3C2)Cc2cc(Cl)ccc2C1=O (stereo not shown) 174 nM

* * *

Biological target: UniProtKB P14416
Sequence (P14416 whole entry): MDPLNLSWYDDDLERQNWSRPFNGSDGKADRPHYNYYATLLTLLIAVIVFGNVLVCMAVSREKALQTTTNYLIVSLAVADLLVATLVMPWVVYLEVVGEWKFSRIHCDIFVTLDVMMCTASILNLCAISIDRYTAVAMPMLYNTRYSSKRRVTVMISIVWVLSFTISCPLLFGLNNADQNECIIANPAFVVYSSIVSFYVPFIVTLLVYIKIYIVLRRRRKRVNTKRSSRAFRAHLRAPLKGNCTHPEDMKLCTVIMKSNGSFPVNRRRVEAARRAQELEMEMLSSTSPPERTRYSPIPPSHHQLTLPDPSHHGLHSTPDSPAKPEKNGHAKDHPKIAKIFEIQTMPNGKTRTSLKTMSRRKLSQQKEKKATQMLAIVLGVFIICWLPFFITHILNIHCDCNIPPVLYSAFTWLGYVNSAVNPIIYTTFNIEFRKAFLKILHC
Experiment: PDSP radioligand binding, D2
measured attribute: Ki (nM)
Please give a number only; it is taken to be in nM.

>  <compound>
CC1(CCN2CCc3ccccc3C2)Cc2cc(Cl)ccc2C1=O (centres unmarked)

>  <assay result>
1230

$$$$

Lab note: next compound to report on.
Returns the measured Ki for the input compound. Input: CCOC(=O)C1(CCN2CCc3ccccc3C2)Cc2cc(Cl)ccc2C1=O (centres unmarked) 747

* * *

Target: 5-HT7R (Homo sapiens, UniProt P34969)
Sequence (P34969 whole entry): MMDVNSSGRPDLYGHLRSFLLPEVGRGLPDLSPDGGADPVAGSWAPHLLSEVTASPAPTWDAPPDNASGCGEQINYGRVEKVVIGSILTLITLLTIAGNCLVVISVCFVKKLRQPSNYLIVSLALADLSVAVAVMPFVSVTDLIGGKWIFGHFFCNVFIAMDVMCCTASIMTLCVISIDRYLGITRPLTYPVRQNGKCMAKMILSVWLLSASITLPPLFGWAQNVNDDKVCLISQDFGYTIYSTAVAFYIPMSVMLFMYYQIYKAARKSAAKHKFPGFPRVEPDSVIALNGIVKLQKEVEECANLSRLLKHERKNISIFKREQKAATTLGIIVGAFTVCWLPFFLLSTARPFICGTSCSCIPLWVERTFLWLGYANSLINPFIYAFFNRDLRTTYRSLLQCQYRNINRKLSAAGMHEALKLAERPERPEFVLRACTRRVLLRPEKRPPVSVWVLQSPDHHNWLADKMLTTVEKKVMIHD
Test: GPCR Tango assay, β-arrestin recruitment
Settings: read-out: β-arrestin EC50; agonist mode, Tango
measured attribute: EC50 (nM)
Please give a number only; it is taken to be in nM.

Param readout = EC50; param system = 5-HT7R (Homo sapiens, UniProt P34969); param query = CC1(CCN2CCc3ccccc3C2)Cc2cc(Cl)ccc2C1=O (single isomer, unassigned; (-)) ; response: value 3.98

* * *

Target: UniProt:P08908
Sequence (P08908 1-422): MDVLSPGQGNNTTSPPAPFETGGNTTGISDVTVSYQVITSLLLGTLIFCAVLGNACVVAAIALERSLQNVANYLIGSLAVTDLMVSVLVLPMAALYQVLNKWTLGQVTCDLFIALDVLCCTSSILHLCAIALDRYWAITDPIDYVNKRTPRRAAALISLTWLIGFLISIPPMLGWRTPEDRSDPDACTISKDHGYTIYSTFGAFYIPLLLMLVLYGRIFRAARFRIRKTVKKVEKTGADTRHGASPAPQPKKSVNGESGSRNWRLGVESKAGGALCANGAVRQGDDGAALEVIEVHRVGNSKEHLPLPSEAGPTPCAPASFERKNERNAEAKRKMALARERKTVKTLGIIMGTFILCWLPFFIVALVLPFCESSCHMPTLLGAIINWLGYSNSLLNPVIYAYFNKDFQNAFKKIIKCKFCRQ
Test: PDSP radioligand binding, 5-HT1AR
Conditions: read-out: Binding affinity constant Ki, 5-HT1AR; [3H]8-OH-DPAT
measured attribute: Ki (nM)
Please give a number only; it is taken to be in nM.

Returns the measured Ki for the input compound. Input: CC1(CCN2CCc3ccccc3C2)Cc2cc(Cl)ccc2C1=O (single isomer, unassigned; (-)) 86.3

* * *

Molecular target: 5-HT7R (Homo sapiens, UniProt P34969)
Assay: PDSP radioligand binding, 5-HT7R
Details: read-out: 5-HT7 Receptor Binding Ki; Table 3
measured attribute: Ki (nM)
Please give a number only; it is taken to be in nM.

Param readout = Ki; param system = 5-HT7R (Homo sapiens, UniProt P34969); param query = CC1(CCN2CCc3ccccc3C2)Cc2cc(Cl)ccc2C1=O (single isomer, unassigned; (-)) ; response: value 2.4

* * *

Target: 5-HT7R (Homo sapiens, UniProt P34969)
Test: PDSP radioligand binding, 5-HT7R
Conditions: read-out: Binding affinity constant Ki, 5-HT7R; Table 1; [3H]LSD
measured attribute: pKi
// pKi is dimensionless: -log10 of concentration (M)

Returns the measured pKi for the input compound. Input: CC1(CCN2CCc3ccccc3C2)Cc2cc(Cl)ccc2C1=O (single isomer, unassigned; (-)) 8.92
